Biological target: T1, Human ACVR2A (human, UniProt P27037 20-135, limits assumed); further: test concentration or dose not given here
T1 construct: also called activin receptor, type II A
T1 sequence (P27037 20-135 limits assumed): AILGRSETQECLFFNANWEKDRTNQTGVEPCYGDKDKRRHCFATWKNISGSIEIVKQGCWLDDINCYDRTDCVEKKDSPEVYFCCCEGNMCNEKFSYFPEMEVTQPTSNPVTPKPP
Test: ELISA
Label scheme for optical density: lower than 3 OD is f, 3 OD and above is t.

Dear colleague, could you confirm whether 373_B09 (antibody, V domains shown, VH/VL only) VH: EVQLLESGGGLVQPGGSLRLSCAASGFTFDSYSMNWVRQAPGKGLEWVSGINYNGGYKSYADSVKGRFTISRDNSKNTLYLQMNSLRAEDTAVYYCARGATWHDTHLDYWGQGTLVTVSS VL: DIQMTQSPSSLSASVGDRVTITCRASQSILSYLNWYQQKPGKAPKLVIYAATSLASGVPSRFSGSGSGTDFTLTISSLQPEDFATYYCQQSYETPLTFGGGTKVEIK has optical density at or above 3 OD?
t

# iterate: 367_A04 (antibody, V domains shown, VH/VL only) VH: EVQLLESGGGLVQPGGSLRLSCAASGFTFSSYSMNWVRQAPGKGLEWVSNINYNSGYKSYADSVKGRFTISRDNSKNTLYLQMNSLRAEDTAVYYCARSANWHDTALDYWGQGTLVTVSS VL: DIQMTQSPSSLSASVGDRVTITCRASQSIITYLNWYQQKPGKAPKLLIYAATSRASGVPSRFSGSGSGTDFTLTISSLQPEDFATYYCQQSDDSPLTFGGGTKVEIK
f

What about 365_C12 (antibody, V domains shown, VH/VL only) VH: EVQLLESGGGLVQPGGSLRLSCAASGFTFSSYGMNWVRQAPGKGLEWVAGINYNSGYKSYADSVKGRFTISRDNSKNTLYLQMNSLRAEDTAVYYCARSANWHDTALDYWGQGTLVTVSS VL: DIQMTQSPSSLSASVGDRVTITCRASQSIVSYVNWYQQKPGKAPKLVIYAVTSLASGVPSRFSGSGSGTDFTLTISSLQPEDFATYYCQQSYDTPLTFGGGTKVEIK ?
f

Likewise for 366_H07 (antibody, V domains shown, VH/VL only) VH: EVQLLESGGGLVQPGGSLRLSCAASGFTFSSYGMHWVRQAPGKGLEWVSGINYNGGYTSYADSVKGRFTISRDNSKNTLYLQMNSLRAEDTAVYYCARSANWHDTALDYWGQGTLVTVSS VL: DIQMTQSPSSLSASVGDRVTITCRASQSIISYVNWYQQKPGKAPKLVIYAVTSRASGVPSRFSGSGSGTDFTLTISSLQPEDFATYYCQQSYENPLTFGGGTKVEIK ?
f
